FYI, the data here is from paper PMC8000227.

Can you tell me CC50 at 72 h for the items I'm about to list?
Experiment: Cytotoxicity assay (XTT) in TZM-GFP cells
Type: cell-based
Conditions: human, mean ± SD, read-out: CC50 (concentration of compound causing 50% cell death)

Provide CC50 at 72 h for all items below, preserving their order.
1. CCn1cc(CC(=O)N[C@@H](Cc2ccccc2)c2ncccc2-c2ccc(Cl)cc2)c2cc(OC)ccc21 [Compound 17]
2. Cc1[nH]c2ccccc2c1CC(=O)N[C@@H](Cc1ccccc1)c1nccn1-c1ccc(-c2nnn[nH]2)cc1 [Compound 22]
3. O=C(Cn1cccn1)N[C@H](Cc1ccccc1)c1ncccc1-c1ccccc1 [Compound 6]
4. Cc1[nH]c2ccccc2c1CC(=O)N[C@@H](Cc1ccccc1)c1ncccc1-c1ccccc1 [Compound 9]

Result:
1: 48 µM; 2: > 50 µM; 3: > 50 µM; 4: < 50 µM

----------
Experiment: Microsomal stability, human liver microsomes
Type: in vitro ADME
Conditions: human, liver microsomes, pH 7.4, 1 µM compound, 0.5 mg/mL microsomal protein, NADPH, 37 °C; read-out: Phase I metabolic stability t1/2, HLMs
I'd appreciate it if you could supply half-life at 1 µM values for the items below.
Answers are plain numbers, in min.

# SMILES STRUCTURE, UNIT INFO, half-life at 1 µM
data = [
    ("Cc1[nH]c2ccccc2c1CC(=O)N[C@@H](Cc1ccccc1)c1ncccc1-c1ccccc1", "min", 1.2),
    ("Cc1[nH]c2ccccc2c1CC(=O)N[C@@H](Cc1ccccc1)c1nccn1-c1ccccc1", "min", 0.9),
    ("CCn1cc(CC(=O)N[C@@H](Cc2ccccc2)c2ncccc2-c2ccc(Cl)cc2)c2cc(OC)ccc21", "min", 1.3),
    ("O=C(Cc1c[nH]c2ccc(O)cc12)N[C@@H](Cc1ccccc1)c1ncccc1-c1ccc(Cl)cc1", "min", 27),
]

// input: 3 compounds below; output: half-life at 1 µM for each
1. CCn1cc(CC(=O)N[C@@H](Cc2ccccc2)c2ncccc2-c2ccc(Cl)cc2)c2ccccc21
2. COc1ccc2[nH]cc(CC(=O)N[C@@H](Cc3ccccc3)c3ncccc3-c3ccc(Cl)cc3)c2c1
3. Cc1[nH]c2ccccc2c1CC(=O)N[C@@H](Cc1ccccc1)c1nccn1-c1ccc(-c2nnn[nH]2)cc1

Result:
1: 1.4; 2: 1.7; 3: 1.3

----------
Biological target: covalently-crosslinked hexameric CA A14C/E45C/W184A/M185A (CA121) (Human immunodeficiency virus type 1 group M subtype B, UniProt P12493, A146C/E177C/M317A/W316A)
Experiment: Thermal shift assay (TSA) on CA hexamer stability
Format: binding, HIV-1
Details: 20 µM compound, 7.5 µM CA121
Exercise: for every item that follows, state its recorded TSA ΔTm (change of CA crosslinked hexamer melting temperature vs DMSO).
Include the unit after the number when you answer.

Worked examples, 3 compounds total:
# SMILES STRUCTURE, OBSERVED RESULT
rows = [
    ("Cc1[nH]c2ccccc2c1CC(=O)N[C@@H](Cc1ccccc1)c1ncccc1-c1cccc(C#N)c1", "−0.2 ± 0.07 °C"),
    ("O=C(Cn1cccn1)N[C@H](Cc1ccccc1)c1ncccc1-c1ccccc1", "0.3 ± 0.1 °C"),
    ("Cc1[nH]c2ccccc2c1CC(=O)N[C@@H](Cc1ccccc1)C(=O)N1CCc2ccccc21", "−0.5 °C"),
]

Query: For COc1ccc2[nH]cc(CC(=O)N[C@@H](Cc3ccccc3)c3nccn3-c3ccc(Cl)cc3)c2c1 , write its TSA ΔTm (change of CA crosslinked hexamer melting temperature vs DMSO).
Result: 4.0 ± 0.3 °C
